molecular target: CDK3/Cyclin E1 (Homo sapiens); assay: NanoBRET live-cell target engagement, CDK3-NanoLuc/Cyclin E1 in HEK-293; assay type: binding; conditions: 10µM; independent experiment 2
Sequence (Q00526 whole entry): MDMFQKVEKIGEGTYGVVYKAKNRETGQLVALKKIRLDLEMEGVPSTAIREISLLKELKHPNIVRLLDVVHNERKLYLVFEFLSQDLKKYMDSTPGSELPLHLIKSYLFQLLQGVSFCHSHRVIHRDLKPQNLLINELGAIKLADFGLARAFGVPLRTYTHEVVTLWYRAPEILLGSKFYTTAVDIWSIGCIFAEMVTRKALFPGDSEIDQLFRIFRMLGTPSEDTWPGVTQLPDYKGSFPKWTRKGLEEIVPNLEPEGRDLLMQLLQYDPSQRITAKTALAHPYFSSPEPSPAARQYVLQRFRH
Sequence (P24864 whole entry partner): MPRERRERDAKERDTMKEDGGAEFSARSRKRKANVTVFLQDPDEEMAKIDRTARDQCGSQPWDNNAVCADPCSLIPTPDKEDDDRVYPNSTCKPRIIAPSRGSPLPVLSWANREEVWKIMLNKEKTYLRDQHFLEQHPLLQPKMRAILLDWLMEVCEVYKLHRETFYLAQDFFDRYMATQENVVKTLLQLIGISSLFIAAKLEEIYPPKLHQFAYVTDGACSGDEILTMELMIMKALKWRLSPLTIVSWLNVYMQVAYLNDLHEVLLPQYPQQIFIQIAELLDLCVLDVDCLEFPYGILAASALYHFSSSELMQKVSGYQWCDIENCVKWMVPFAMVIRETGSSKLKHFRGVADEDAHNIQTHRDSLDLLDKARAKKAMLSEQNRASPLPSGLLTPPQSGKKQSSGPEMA
Known CDK3/E1 Inhibition at 10µM (%) of a selection of compounds
Could you give me the number in %? Just the number is fine.

# example entries with known answers
# COMPOUND, CDK3/E1 Inhibition at 10µM (%)
data = [
    ("Cc1c(Br)c(Br)c2c3c1nc(N1CCNCC1)n3CCC2.Cl [SEL 120-34A]", 40.8),
    ("O=C1NC(=NCc2cccs2)S/C1=C\\c1ccc2ncccc2c1 [RO-3306]", 96.3),
    ("O=C1NCCc2[nH]c(-c3ccncc3)cc21 [PHA-767491]", 32.8),
]

Attention now shifts to the item below.
Inquiry: Recorded CDK3/E1 Inhibition at 10µM (%) of CN(C)C/C=C/C(=O)Nc1ccc(C(=O)Nc2cccc(Nc3ncc(Cl)c(-c4c[nH]c5ccccc45)n3)c2)cc1 [THZ1] , please.
Reply text: 95.2
